system: panel of solid human tumor cell lines (MCF-7, HCT-116, HSC-2, HK-1); assay: MTT cell viability assay, panel of cancer cell lines; assay type: cell-based; settings: mean over MCF-7, HCT-116, HSC-2, HK-1
property: IC50 (nM)

Report IC50 for c1csc(-c2c3ccc(=[N+]4CCCCC4)cc-3oc3cc(N4CCCCC4)ccc23)c1 [Rosamine 5] 110

Report IC50 for c1csc(-c2c3ccc(=[N+]4CCOCC4)cc-3oc3cc(N4CCCCC4)ccc23)c1 [Rosamine 8, Unsymmetrical Thiofuryl Rosamine] 250

Report IC50 for Ic1ccc(-c2c3ccc(=[N+]4CCCCC4)cc-3oc3cc(N4CCCCC4)ccc23)cc1 [Rosamine 2] 410

Report IC50 for Brc1ccc(-c2c3ccc(=[N+]4CCCCC4)cc-3oc3cc(N4CCCCC4)ccc23)cc1 [Rosamine 3, 4-Bromobenzene Rosamine] 280

Report IC50 for Ic1ccc(-c2c3ccc(=[N+]4CCOCC4)cc-3oc3cc(N4CCCCC4)ccc23)cc1 [Rosamine 7, Unsymmetrical 4-Iodophenyl Rosamine] 290

(A) c1coc(-c2c3ccc(=[N+]4CCCCC4)cc-3oc3cc(N4CCCCC4)ccc23)c1 [Rosamine 6, Furan Rosamine]
(B) c1ccc(-c2c3ccc(=[N+]4CCCCC4)cc-3oc3cc(N4CCCCC4)ccc23)cc1 [Rosamine 1]
Could you please tell me which of these two has the higher IC50: A or B ? Field: selected label. Fill in the label of the entry you choose. B

---

molecular target: Complex II (Mus musculus, UniProt Q8K2B3+Q9CQA3+Q9CXV1+Q9CZB0); assay: Immunocapture ELISA microplate enzyme activity assay; conditions: mouse liver mitochondria extract; 0.01–10 µM
Sequence (Q8K2B3 43-664): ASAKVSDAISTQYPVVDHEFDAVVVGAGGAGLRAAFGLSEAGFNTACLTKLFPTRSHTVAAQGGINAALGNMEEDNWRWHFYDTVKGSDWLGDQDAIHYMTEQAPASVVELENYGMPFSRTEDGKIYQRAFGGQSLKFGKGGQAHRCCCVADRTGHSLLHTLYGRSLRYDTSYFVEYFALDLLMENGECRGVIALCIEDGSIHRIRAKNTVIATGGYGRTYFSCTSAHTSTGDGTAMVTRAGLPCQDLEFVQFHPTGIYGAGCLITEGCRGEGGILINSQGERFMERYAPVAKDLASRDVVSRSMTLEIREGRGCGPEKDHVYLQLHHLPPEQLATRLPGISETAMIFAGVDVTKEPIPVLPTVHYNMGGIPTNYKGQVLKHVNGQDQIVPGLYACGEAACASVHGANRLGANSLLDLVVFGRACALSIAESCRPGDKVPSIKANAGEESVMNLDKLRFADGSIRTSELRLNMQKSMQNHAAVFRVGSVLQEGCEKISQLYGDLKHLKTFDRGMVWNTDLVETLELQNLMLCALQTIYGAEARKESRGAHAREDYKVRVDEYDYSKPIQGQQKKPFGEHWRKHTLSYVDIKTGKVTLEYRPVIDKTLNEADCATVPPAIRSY
Sequence (Q9CQA3 31-282): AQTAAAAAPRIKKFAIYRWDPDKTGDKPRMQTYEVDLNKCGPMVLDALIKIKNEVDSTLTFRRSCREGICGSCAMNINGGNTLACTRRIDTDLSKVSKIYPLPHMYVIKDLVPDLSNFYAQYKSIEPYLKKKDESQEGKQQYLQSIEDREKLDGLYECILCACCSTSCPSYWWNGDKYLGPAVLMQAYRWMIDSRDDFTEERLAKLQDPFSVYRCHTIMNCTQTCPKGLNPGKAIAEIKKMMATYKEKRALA
Sequence (Q9CZB0 30-169): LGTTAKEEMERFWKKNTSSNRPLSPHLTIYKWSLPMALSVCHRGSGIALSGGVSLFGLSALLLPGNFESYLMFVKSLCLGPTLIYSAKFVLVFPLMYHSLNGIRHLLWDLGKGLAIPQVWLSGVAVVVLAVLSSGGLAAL
Sequence (Q9CXV1 57-159): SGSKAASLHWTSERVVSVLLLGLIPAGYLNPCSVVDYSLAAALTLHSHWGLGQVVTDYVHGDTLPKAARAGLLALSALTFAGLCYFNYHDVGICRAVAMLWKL
property: pIC50
By convention, pIC50 is the negative base-10 log of a molar concentration.

Report pIC50 for c1csc(-c2c3ccc(=[N+]4CCCCC4)cc-3oc3cc(N4CCCCC4)ccc23)c1 5.02

---

target: Complex I; experiment: Immunocapture ELISA microplate enzyme activity assay; settings: mouse liver mitochondria extract; 0.01–10 µM
pIC50: −log10 of the molar value.
Listed next: entries and their corresponding pIC50.

Report pIC50 for Ic1ccc(-c2c3ccc(=[N+]4CCCCC4)cc-3oc3cc(N4CCCCC4)ccc23)cc1 < 5.00

More entries:
Report pIC50 for c1csc(-c2c3ccc(=[N+]4CCCCC4)cc-3oc3cc(N4CCCCC4)ccc23)c1 < 5.00

---

tested on: HK-1 nasopharyngeal squamous carcinoma cells; test: MTT cell viability assay, 48 h; assay type: cell-based; settings: Homo sapiens, 48 h post-treatment, mean ± SD
property: IC50 (nM)

(A) c1csc(-c2c3ccc(=[N+]4CCOCC4)cc-3oc3cc(N4CCCCC4)ccc23)c1
(B) c1coc(-c2c3ccc(=[N+]4CCCCC4)cc-3oc3cc(N4CCCCC4)ccc23)c1
Could you please tell me which of these two has the higher IC50: A or B ? Field: selected label. Fill in the label of the entry you choose. A
(A: 530 nM, B: 310 nM)

(I) Ic1ccc(-c2c3ccc(=[N+]4CCOCC4)cc-3oc3cc(N4CCCCC4)ccc23)cc1
(II) Clc1ccc(-c2c3ccc(=[N+]4CCCCC4)cc-3oc3cc(N4CCCCC4)ccc23)cc1
Could you please tell me which of these two has the higher IC50: I or II ? Field: selected label. Fill in the label of the entry you choose. I
(I: 440 nM, II: 250 nM)

(I) c1ccc(-c2c3ccc(=[N+]4CCCCC4)cc-3oc3cc(N4CCCCC4)ccc23)cc1
(II) Brc1ccc(-c2c3ccc(=[N+]4CCCCC4)cc-3oc3cc(N4CCCCC4)ccc23)cc1
Of I versus II , which is the one with smaller reported IC50? Field: selected label. Fill in the label of the entry you choose. II
(II: 340 nM, I: 610 nM)

---

system: MCF-7 breast carcinoma; assay: MTT cell viability assay, 48 h; type: cell-based; conditions: Homo sapiens, MCF7, 48 h post-treatment, mean ± SD
property: IC50 (nM)

Report IC50 for c1coc(-c2c3ccc(=[N+]4CCCCC4)cc-3oc3cc(N4CCCCC4)ccc23)c1 310

Report IC50 for c1csc(-c2c3ccc(=[N+]4CCOCC4)cc-3oc3cc(N4CCCCC4)ccc23)c1 170

Report IC50 for Ic1ccc(-c2c3ccc(=[N+]4CCCCC4)cc-3oc3cc(N4CCCCC4)ccc23)cc1 590

Report IC50 for Brc1ccc(-c2c3ccc(=[N+]4CCCCC4)cc-3oc3cc(N4CCCCC4)ccc23)cc1 290

Report IC50 for c1csc(-c2c3ccc(=[N+]4CCCCC4)cc-3oc3cc(N4CCCCC4)ccc23)c1 180

(P) Clc1ccc(-c2c3ccc(=[N+]4CCCCC4)cc-3oc3cc(N4CCCCC4)ccc23)cc1
(Q) Ic1ccc(-c2c3ccc(=[N+]4CCOCC4)cc-3oc3cc(N4CCCCC4)ccc23)cc1
(R) c1ccc(-c2c3ccc(=[N+]4CCCCC4)cc-3oc3cc(N4CCCCC4)ccc23)cc1
# rank by IC50, ascending (min first) Answer with the labels in sequence, matching the requested order. P, Q, R

---

system: HCT-116 colon carcinoma; assay: MTT cell viability assay, 48 h; type: cell-based; settings: Homo sapiens, 48 h post-treatment, mean ± SD
pIC50: −log10 of the molar value.
property: pIC50

Some entries whose results are on file:
Report pIC50 for Ic1ccc(-c2c3ccc(=[N+]4CCOCC4)cc-3oc3cc(N4CCCCC4)ccc23)cc1 [Rosamine 7, Unsymmetrical 4-Iodophenyl Rosamine] 6.62

Report pIC50 for c1csc(-c2c3ccc(=[N+]4CCOCC4)cc-3oc3cc(N4CCCCC4)ccc23)c1 [Rosamine 8, Unsymmetrical Thiofuryl Rosamine] 7.15

Report pIC50 for c1csc(-c2c3ccc(=[N+]4CCCCC4)cc-3oc3cc(N4CCCCC4)ccc23)c1 [Rosamine 5] 7.15

Report pIC50 for Brc1ccc(-c2c3ccc(=[N+]4CCCCC4)cc-3oc3cc(N4CCCCC4)ccc23)cc1 [Rosamine 3, 4-Bromobenzene Rosamine] 6.52

Report pIC50 for Ic1ccc(-c2c3ccc(=[N+]4CCCCC4)cc-3oc3cc(N4CCCCC4)ccc23)cc1 [Rosamine 2] 6.41

(A) Clc1ccc(-c2c3ccc(=[N+]4CCCCC4)cc-3oc3cc(N4CCCCC4)ccc23)cc1 [Rosamine 4, 4-Chlorobenzene Rosamine]
(B) c1ccc(-c2c3ccc(=[N+]4CCCCC4)cc-3oc3cc(N4CCCCC4)ccc23)cc1 [Rosamine 1]
(C) c1coc(-c2c3ccc(=[N+]4CCCCC4)cc-3oc3cc(N4CCCCC4)ccc23)c1 [Rosamine 6, Furan Rosamine]
# rank by pIC50, ascending (min first) Answer with the labels in sequence, matching the requested order. B, A, C
(B: 6.22, A: 6.66, C: 7.00)

---

molecular target: ATP synthase (Mus musculus, UniProt P56480+Q03265); assay: Immunocapture ELISA microplate enzyme activity assay; conditions: read-out: IC50 ATP synthase activity; mouse liver mitochondria extract; 0.01–10 µM
property: IC50 (µM)
# value in µM; strip the unit string

Report IC50 for Ic1ccc(-c2c3ccc(=[N+]4CCCCC4)cc-3oc3cc(N4CCCCC4)ccc23)cc1 3.9

More entries:
Report IC50 for c1csc(-c2c3ccc(=[N+]4CCCCC4)cc-3oc3cc(N4CCCCC4)ccc23)c1 3
